Tested on: isolated rat brain synaptosomes
test_name: Neurotoxicity: reduced glutathione (GSH) level in synaptosomes, substances applied alone
Format: cell-based
reported_conditions: 50 µM applied alone, 1 h, compared to control
Collected decrease of glutathione (GSH) level values appear next to each entry.
Field: numeric (%). Do not append units.

{"structure_smiles": "CCOC(=O)c1cc(-c2ccc(Br)cc2)n(CCC(=O)NN=Cc2ccc(Cl)cc2)c1C", "number": 20}

Task: Given the compound "CCOC(=O)c1cc(-c2ccc(Br)cc2)n(CC(=O)NN=Cc2ccc([N+](=O)[O-])cc2)c1C" , write its reported decrease of glutathione (GSH) level.
Result: 20

Task: Given the compound "CCOC(=O)c1cc(-c2ccc(Br)cc2)n(CCC(=O)NN=Cc2ccc(OC)cc2OC)c1C" , write its reported decrease of glutathione (GSH) level.
Result: 20

Task: Given the compound "CCOC(=O)c1cc(-c2ccc(Br)cc2)n(CC(=O)NN=Cc2ccc(OC)cc2OC)c1C" , write its reported decrease of glutathione (GSH) level.
Result: 25
